System: biosynthesis of leukotrienes B4 (LTB4), human polymorphonuclear leukocytes
Test: Biosynthesis of LTB4, isomers and oxidized metabolites in human polymorphonuclear leukocytes
Type: cell-based
Settings: Leukocyte, first experiment, read-out: Isomers of LTB4: percentage inhibition (+ : percentage increase in the production)
Readout Name: inhibition at 40 µM

Known results for molecules:
Fill in: inhibition at 40 µM of `O=C(O)CCCCCCCCCCNS(=O)(=O)c1ccc([N+](=O)[O-])cc1C(=O)c1ccccc1` is ___ 53%

Now consider `O=C(O)CCCCCCCCCCNS(=O)(=O)c1ccc(C(=O)c2ccccc2)cc1` and answer again. 5%

One more molecule: `O=C(O)CCCCCCCCCCCNS(=O)(=O)c1ccc(C(=O)c2ccccc2)cc1` 0%

Thanks! And `O=C(O)CCCCCCCCCCCNS(=O)(=O)c1cccc(C(=O)c2cc(S(=O)(=O)NCCCCCCCCCCCC(=O)O)ccc2Cl)c1` ? -30%

Here is the next molecule: `O=C(O)CCCCCCCCCCNS(=O)(=O)c1ccccc1C(=O)c1ccccc1` 30%

Next:
Entry `O=C(O)CCCCCCCCCCCNS(=O)(=O)c1cccc(C(=O)c2ccccc2)c1` : reported inhibition at 40 µM = ? 70%

Follow-up entry: `O=C(O)CCCCCCCCCCNS(=O)(=O)c1ccc(Cl)cc1C(=O)c1ccccc1Cl` 100%

`O=C(O)CCCCCCCCCCNS(=O)(=O)c1ccc(Cl)cc1C(=O)c1ccccc1` ? 100%

* * *

Each entry below lists one item and its recorded inhibition at 40 µM value.
Tested on: biosynthesis of leukotrienes B4 (LTB4), human polymorphonuclear leukocytes
Assay: Biosynthesis of LTB4, isomers and oxidized metabolites in human polymorphonuclear leukocytes
Assay type: cell-based
Conditions: Leukocyte, first experiment, read-out: Oxidized metabolites of LTB4: percentage inhibition (+ : percentage increase in the production)
Quick note: give the figure in %, leave out the unit.

Reference set, count: 5
API: value(readout=inhibition at 40 µM, system=biosynthesis of leukotrienes B4 (LTB4), human polymorphonuclear leukocytes) for record `O=C(O)CCCCCCCCCCNS(=O)(=O)c1cccc(C(=O)c2ccccc2)c1` 60

Same thing, different molecule: `O=C(O)CCCCCCCCCCCNS(=O)(=O)c1cccc(C(=O)c2cc(S(=O)(=O)NCCCCCCCCCCCC(=O)O)ccc2Cl)c1` 20

Input `O=C(O)CCCCCCCCCCNS(=O)(=O)c1ccc(C(=O)c2ccccc2)cc1` 25

Would you kindly repeat that for `O=C(O)CCCCCCCCCCCNS(=O)(=O)c1ccccc1C(=O)c1ccccc1` ? 30

Do the same for `O=C(O)CCCCCCCCCCNS(=O)(=O)c1ccc(Cl)cc1C(=O)c1ccccc1Cl` please 100

Others:
Lab note: need inhibition at 40 µM for `O=C(O)CCCCCCCCCCNS(=O)(=O)c1ccc(Cl)cc1C(=O)c1ccccc1` on biosynthesis of leukotrienes B4 (LTB4), human polymorphonuclear leukocytes, anyone have it? 90

Can you handle `O=C(O)CCCCCCCCCCCNS(=O)(=O)c1ccc(C(=O)c2ccccc2)cc1` next? -30

Next molecule: `O=C(O)CCCCCCCCCCNS(=O)(=O)c1ccccc1C(=O)c1ccccc1` 40

* * *

# Lookup of reported inhibition at 40 µM keyed by entry
Tested on: biosynthesis of leukotrienes B4 (LTB4), human polymorphonuclear leukocytes
Assay: Biosynthesis of LTB4, isomers and oxidized metabolites in human polymorphonuclear leukocytes
Format: cell-based
Conditions: Leukocyte, first experiment, read-out: Oxidized metabolites of LTB4: percentage inhibition (+ : percentage increase in the production)
Please make sure the unit comes right after the number.

Sample records with inhibition at 40 µM:
Dear colleague, I am looking for the recorded inhibition at 40 µM of the following molecule: `O=C(O)CCCCCCCCCCNS(=O)(=O)c1ccc([N+](=O)[O-])cc1C(=O)c1ccccc1` 70%

// query: `O=C(O)CCCCCCCCCCCNS(=O)(=O)c1cccc(C(=O)c2ccccc2)c1` 70%

More entries:
Please give the measured inhibition at 40 µM for this molecule: `O=C(O)CCCCCCCCCCNS(=O)(=O)c1cccc(C(=O)c2cc(S(=O)(=O)NCCCCCCCCCCC(=O)O)ccc2Cl)c1` 20%

* * *

Tested on: rat hind foot carragheenin-induced oedema
Assay: Carragheenin-induced oedema test
Type: in vivo
Conditions: 3 h, 25 mg/kg oral, first experiment, Table X, read-out: percentage inhibition of the inflammation
Attribute: change in vivo at 25 mg/kg
Please reply with the bare figure in % and do not write the unit itself.

Worked set:
API: value(readout=change in vivo at 25 mg/kg, system=rat hind foot carragheenin-induced oedema) for record `O=C(O)CNS(=O)(=O)c1ccc(Cl)cc1C(=O)c1ccccc1Cl` -15

Next record, please: `O=C(c1ccccc1)c1cc([N+](=O)[O-])ccc1S(=O)(=O)NCCCN1CCOCC1` -15

Here is the next molecule: `O=C(O)CCCCCCCCCCNS(=O)(=O)c1cccc(C(=O)c2cc(S(=O)(=O)NCCCCCCCCCCC(=O)O)ccc2Cl)c1` -25

Shifting focus to the molecule that follows.
Under rat hind foot carragheenin-induced oedema: change in vivo at 25 mg/kg value of `O=C(O)CCCCCCCCCCCNS(=O)(=O)c1ccc(C(=O)c2ccccc2)cc1` ? -25

* * *

System: pain threshold of brewer's yeast inflamed rat hind foot
Assay: Randall and Sellitto's test (analgesic activity)
Assay type: in vivo
Details: 25 mg/kg oral, first experiment, Table XII, read-out: percentage increase in the mean pain threshold
Reported change in vivo at 25 mg/kg values are given for each entry in this list.
# unit: % | format: bare number

Examples with answers:
Please report the recorded change in vivo at 25 mg/kg for `O=C(O)CCCCCCCCCCNS(=O)(=O)c1ccccc1C(=O)c1ccccc1` . 12

Ok, now `O=C(O)CCCCCCCCCCNS(=O)(=O)c1cccc(C(=O)c2ccccc2)c1` 35

Next:
Quick one: change in vivo at 25 mg/kg of `O=C(O)CCCCCCCCCCCNS(=O)(=O)c1ccccc1C(=O)c1ccccc1` ? 15

Same again, this time with `O=C(O)CCCCCNS(=O)(=O)c1ccc(Cl)cc1C(=O)c1ccccc1Cl` 15

Follow-up item: `O=C(O)CCCCCNS(=O)(=O)c1ccc([N+](=O)[O-])cc1C(=O)c1ccccc1` 18

Now try `O=C(c1ccccc1)c1cc([N+](=O)[O-])ccc1S(=O)(=O)NCCCN1CCOCC1` . 20

Same question for `O=C(c1ccccc1)c1ccccc1S(=O)(=O)NCCCN1CCOCC1` please. 10

Then `O=C(O)CNS(=O)(=O)c1ccc(Cl)cc1C(=O)c1ccccc1` ? 18

And what about the compound `O=C(O)CCCCCNS(=O)(=O)c1ccc(Cl)cc1C(=O)c1ccccc1` ? 10

Now consider `O=C(O)CCCNS(=O)(=O)c1ccc(Cl)cc1C(=O)c1ccccc1Cl` . 20

* * *

Test system: rat hind foot kaolin-induced arthritis
Assay: Kaolin-induced arthritis test, second experiment, chronic phase (weight of the foot at the 12th hour)
Type: in vivo
Settings: po, 12 h, 50 mg/kg, 12th hour, Table IXb, read-out: percentage significant decrease in the weight of the treated foot
Readout Name: change in vivo at 50 mg/kg (%)
# number only, unit % dropped from output

Here's what some known entries look like.
State the recorded change in vivo at 50 mg/kg for this entry: O=C(O)CCCCCCCCCCNS(=O)(=O)c1ccc(Cl)cc1C(=O)c1ccccc1Cl [Compound 1574] -60

Another molecule to look at: O=C(O)CCCCCCCCCCCNS(=O)(=O)c1ccc(Cl)c(C(=O)c2ccc(Cl)cc2Cl)c1 [Compound 1764] -52

What about O=C(O)CCCCCCCCCCCNS(=O)(=O)c1ccc(Cl)cc1C(=O)c1ccccc1Cl [Compound 1755] ? -55

Further cases:
So what's the measured change in vivo at 50 mg/kg for this one? O=C(O)CCCCCCCCCCNS(=O)(=O)c1ccc(Cl)c(C(=O)c2ccc(Cl)cc2)c1 [Compound 1761] -45

Repeat with O=C(O)CCCCCCCCCCNS(=O)(=O)c1ccc(Cl)c(C(=O)c2ccc(Cl)cc2Cl)c1 [Compound 1763] -40

Ok, now O=C(O)CCCCCCCCCCCNS(=O)(=O)c1ccc(Cl)c(C(=O)c2ccccc2)c1 [Compound 1736] -55

And the next one, O=C(O)CCCCCCCCCCNS(=O)(=O)c1ccc(Cl)cc1Cc1ccccc1Cl [Compound 1797] ? -58

How about O=C(O)CCCCCCCCCCNS(=O)(=O)c1ccc(Cl)cc1C(O)c1ccccc1Cl (centres unmarked) [Compound 1796] ? -52

* * *

Tested on: pain threshold of brewer's yeast inflamed rat hind foot
Test: Randall and Sellitto's test (analgesic activity)
Assay type: in vivo
Settings: 100 mg/kg oral, second experiment, Table XIIa, read-out: percentage increase in the mean pain threshold
Recorded change in vivo at 100 mg/kg by entry
Form entry: value (%) — number only.

Examples with their reported change in vivo at 100 mg/kg follow.
Given `O=C(O)CCCCCCCCCCNS(=O)(=O)c1ccc(Cl)cc1C(=O)c1ccccc1Cl` , state its recorded change in vivo at 100 mg/kg. 50

Check `O=C(O)CCCCCCCCCCCNS(=O)(=O)c1ccc(Cl)cc1C(=O)c1ccccc1Cl` too. 55

Next entry: O=C(O)CCCCCCCCCCNS(=O)(=O)c1ccc(Cl)cc1C(O)c1ccccc1Cl (centres unmarked) 58

***
I have this molecule here, `O=C(O)CCCCCCCCCCCNS(=O)(=O)c1ccc(Cl)c(C(=O)c2ccc(Cl)cc2Cl)c1` , and I need its recorded change in vivo at 100 mg/kg. 58

// same read-out, input: `O=C(O)CCCCCCCCCCNS(=O)(=O)c1ccc(Cl)c(C(=O)c2ccc(Cl)cc2)c1` 50

Consider next the molecule `O=C(O)CCCCCCCCCCNS(=O)(=O)c1ccc(Cl)c(C(=O)c2ccc(Cl)cc2Cl)c1` in the same way. 45

# repeat for `O=C(O)CCCCCCCCCCCNS(=O)(=O)c1ccc(Cl)c(C(=O)c2ccccc2)c1` 60

Would you kindly repeat that for `O=C(O)CCCCCCCCCCNS(=O)(=O)c1ccc(Cl)cc1Cc1ccccc1Cl` ? 58
